Assay: chemical genetic growth profiling, strain panel (AID 1159580);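 also: tested at 20 µM; growth read once vehicle control cultures reached saturation at 30 °C; 1 = growth at the plate median or of vehicle wells; lower values mean less growth of the strain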
Settings: S. cerevisiae deletion strains, growth OD, locus YBR229C, strain ROT2, active compounds read low
Out of some 5,500 compounds screened, about 2,000 (36%) were called active. Not shown: some 18% with an inconclusive outcome. The list shows a part of the results.
This section presents molecules with their documented normalized growth values.
testReadout: normalized growth

molecule="C[C@H]1C(=O)CCC2[C@]3(C)CC[C@@]4(C)C5CC(C)(C)CC[C@]5(C)CC[C@]4(C)C3CC[C@@]21C (some centres not stated)" result="1.02 (inactive)"
molecule=CC(=O)NS(=O)(=O)c1ccc(N)cc1 result="0.986 (inactive)"
molecule=N/C(=N/O)c1cnccc1C(F)(F)F result="1.01 (inactive)"
molecule=CNC(=O)N(C)c1nnc(C(C)(C)C)s1 result="1.01 (inactive)"
molecule=C=C[C@H]1CN2CC[C@H]1C[C@H]2[C@H](O)c1ccnc2ccccc12 result="1.01 (inactive)"
molecule=CCOC(=O)c1cnc(SCC(=O)c2ccc(Cl)cc2Cl)[nH]1 result="1 (inactive)"
molecule="CC(=O)OC[C@@]1(O)C[C@@]23CCC4c5ccoc5CC[C@]4(C)C2CC[C@@H]1C3 (some centres not stated)" result="0.998 (inactive)"
molecule="CCCC(=O)Nc1ccc(OCC(O)CNC(C)C)c(C(C)=O)c1 (configuration not stated)" result="1.01 (inactive)"
molecule="CC(=O)OC1CCC23CC1(C)CCC2C(C)(C)CC3OC(C)=O (configuration not stated)" result="0.988 (inactive)"
molecule=NS(=O)(=O)c1cc2c(cc1Cl)NCNS2(=O)=O result="1 (inactive)"
molecule=COc1cc(C2Nc3cccc4cccc(c34)N2)cc(OC)c1OC result="1.01 (inactive)"
molecule=COc1cc2cccc(OC)c(=O)c2c(OC)c1OC result="1.01 (inactive)"
molecule=CCOC(=O)c1c[nH]c2c(F)cccc2c1=O result="1 (inactive)"
molecule=N[C@@H](C(=O)N[C@@H]1C(=O)N2C(C(=O)O)=C(Cl)CS[C@H]12)c1ccccc1 result="1.02 (inactive)"
molecule=COc1cc(O)c2c(c1)C(=O)c1cc(C)cc(O)c1C2=O result="1.01 (inactive)"
molecule=COc1ccccc1NC(=S)NCCc1ccc(OC)c(OC)c1 result="1 (inactive)"
molecule=O=[N+]([O-])c1ccc(NCCCCCO)nc1 result="0.98 (inactive)"

---

This section presents compounds with their documented normalized growth values.
Experiment: chemical genetic growth profiling, strain panel (AID 1159580)
Settings: S. cerevisiae deletion strains, growth OD, locus YNL322C, strain KRE1 (second series), active compounds read low
Among all 5,500 compounds or so, about 2,000 (36%) were called active. Inconclusive results (about 18%) are left out. This is one part of the list.
testReadout: normalized growth

compound="CC1CC(OC(=O)c2ccccc2O)CC(C)(C)C1 (stereo not given)" number=0.99
compound="CC(=CC1CCC(C)C2C1=C(C)CC2O)C(=O)O (stereo not given)" number=1.01
compound=CC(C)[C@@H]1CC[C@@H](C)C[C@H]1OC(=O)c1ccccc1 number=1.01
compound="CC(NC(C)(C)C)C(=O)c1cccc(Cl)c1 (stereo not given)" number=0.995
compound=O=C(O)c1cccnc1C(=O)O number=0.985

---

Experiment: chemical genetic growth profiling, strain panel (AID 1159580)
Settings: S. cerevisiae deletion strains, growth OD, locus YEL061C, strain CIN8, active compounds read low
In all, about 5,500 compounds went through this assay and about 2,000 (36%) were called active. Roughly 18% stayed inconclusive and do not appear here. This is one part of the list.
testReadout: normalized growth

smilesnotation=Cn1cnc2c1c(=O)[nH]c(=O)n2C number=1.01
smilesnotation=CC(=O)OCC1=C(C(=O)O)N2C(=O)[C@@H](NC(=O)CSc3ccncc3)[C@H]2SC1 number=0.99
smilesnotation=O[C@H]1[C@H](O)[C@@H](O)C2OC[C@H]1O2 number=0.986
smilesnotation=Cc1cc(NC(=O)Nc2cccc(C(F)(F)F)c2)n(C)n1 number=1.01
smilesnotation=Cn1c(=O)[nH]c2nc[nH]c2c1=O number=1
smilesnotation=COc1cc(Cc2cnc(N)nc2N)cc(OC)c1OC number=0.997
smilesnotation=COc1cc([C@@H]2c3cc4c(cc3[C@H](O)[C@H]3COC(=O)[C@H]23)OCO4)cc(OC)c1OC number=1
smilesnotation=Cn1c(=O)c2c(ncn2CCO)n(C)c1=O number=1
smilesnotation=NS(=O)(=O)c1cc2c(cc1Cl)NCNS2(=O)=O number=1
smilesnotation=Cc1c(NC(C)C)c(=O)n(-c2ccccc2)n1C number=1

---

Experiment: chemical genetic growth profiling, strain panel (AID 1159580);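 also: tested at 20 µM; growth read once vehicle control cultures reached saturation at 30 °C; 1 = growth at the plate median or of vehicle wells; lower values mean less growth of the strain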
Conditions: S. cerevisiae deletion strains, growth OD, locus YOL006C, strain TOP1
The whole screen tested about 5,500 compounds, of which about 2,000 (36%) were called active. Not shown: some 18% with an inconclusive outcome. No stated cut-off is given here; in the data, active means normalized growth mostly below about 0.91 (no sharp cut-off); inconclusive means no clear call, values can overlap the other calls; inactive means mostly above about 0.92. This is one part of the list.
Outcomes: 1.0 = active, 0.0 = inactive

molecule=Cn1c(=O)c2c(ncn2CCCl)n(C)c1=O qualitativelabel=0.0
molecule="NC(Cc1ccc(Cl)cc1)C(=O)O (stereo unspecified)" qualitativelabel=0.0
molecule=Cn1cnc2c1c(=O)[nH]c(=O)n2C qualitativelabel=0.0
molecule=Cn1c(=O)c2c(ncn2C)n(C)c1=O qualitativelabel=0.0
molecule=CC(=O)CCCCn1c(=O)c2c(ncn2C)n(C)c1=O qualitativelabel=0.0
molecule=O=c1c(O)c(-c2ccccc2)oc2cc(O)ccc12 qualitativelabel=1.0

---

Assay: chemical genetic growth profiling, strain panel (AID 1159580);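 also: tested at 20 µM; growth read once vehicle control cultures reached saturation at 30 °C; 1 = growth at the plate median or of vehicle wells; lower values mean less growth of the strain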
Details: S. cerevisiae deletion strains, growth OD, locus YHR082C, strain KSP1
About 2,000 (36%) of roughly 5,500 compounds were called active. Not shown: some 18% with an inconclusive outcome. No stated cut-off is given here; in the data, active means normalized growth mostly below about 0.91 (no sharp cut-off); inconclusive means no clear call, values can overlap the other calls; inactive means mostly above about 0.92. This is one part of the list.
Outcomes: active, inactive

compound=NNC(=O)c1oc2nc(-c3ccccc3)cc(-c3ccccc3)c2c1N qualitativelabel=inactive
compound=CC(C)c1cccc(C(C)C)c1OC(=O)NC(=O)c1c(Cl)cccc1Cl qualitativelabel=inactive
compound=Cc1cc(C)c2cc(C(=O)NCCNc3ccc(C(F)(F)F)cn3)[nH]c2c1 qualitativelabel=active
compound=CC(=O)c1ccc(Sc2ccccc2)c([N+](=O)[O-])c1 qualitativelabel=inactive
compound=CCOC(=O)c1cnc(-c2ccccn2)[nH]c1=O qualitativelabel=inactive
compound=CC(C)OC(=O)Nc1cc(Cl)cc(Cl)c1 qualitativelabel=inactive
compound=FC(F)(F)c1c2c(nc3cc(-c4ccco4)nn13)CCC2 qualitativelabel=inactive
compound=O=S(=O)(Nc1cc(C(F)(F)F)cc(C(F)(F)F)c1)c1ccc(Cl)s1 qualitativelabel=active
compound=O=C(Nc1cc(Cl)cc(Cl)c1)c1cc(Cl)ccc1O qualitativelabel=inactive
compound=COC(=O)c1sccc1S(=O)(=O)Nc1cc(C(F)(F)F)cc(C(F)(F)F)c1 qualitativelabel=inactive
compound=COC(=O)c1cc(I)c(OC(C)=O)c(I)c1 qualitativelabel=inactive
compound=O=[N+]([O-])c1cc(C(F)(F)F)ccc1Sc1n[nH]c(-c2cc(Cl)cc(Cl)c2)n1 qualitativelabel=active
compound=COc1ccc(OC)c2nc3c(nc12)C(=O)c1ccccc1-3 qualitativelabel=inactive
compound=CCOC(=O)c1ccc(N=Cc2cc(Cl)cc(Cl)c2O)cc1 qualitativelabel=active
compound=S=C(NCc1cccs1)Nc1cc(Cl)cc(Cl)c1 qualitativelabel=inactive
compound="COc1cc(C2CC(=S)Nc3ccccc3S2)cc(OC)c1OC (stereo unspecified)" qualitativelabel=inactive
compound=CC(C)Sc1c(Cl)cccc1NC(=O)Nc1ccccc1 qualitativelabel=inactive
compound="CCOC(=O)C(O)(c1ccc(NC(=O)c2ccc(Cl)c(Cl)c2)cc1)C(F)(F)F (stereo unspecified)" qualitativelabel=inactive
compound=N/C(=N/OCc1c(F)cccc1Cl)c1ccc(Cl)cc1 qualitativelabel=inactive
compound=O=C(NCc1ccc2c(c1)OCO2)c1cc2ccccc2s1 qualitativelabel=active
compound=O=C(Nc1ccc(F)cc1F)c1cc(Cl)ccc1O qualitativelabel=inactive
compound=COC(=O)c1cc([N+](=O)[O-])ccc1S(=O)(=O)Cc1ccc(Cl)cc1 qualitativelabel=inactive
compound=O=C1C(NCc2ccccc2)=C(NCc2ccccc2)C(=O)c2ccccc21 qualitativelabel=inactive
compound=O=[N+]([O-])c1ccc(Sc2ccccc2)cc1O qualitativelabel=inactive
compound=Cn1cc(Br)c(-c2cccc(NS(=O)(=O)c3ccc(Cl)cc3)c2)n1 qualitativelabel=inactive
compound="C=CCC1C(=O)N(S(=O)(=O)c2ccc(Cl)cc2)N=C1CCC (stereo unspecified)" qualitativelabel=inactive

---

Test: chemical genetic growth profiling, strain panel (AID 1159580);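 also: tested at 20 µM; growth read once vehicle control cultures reached saturation at 30 °C; 1 = growth at the plate median or of vehicle wells; lower values mean less growth of the strain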
Conditions: S. cerevisiae deletion strains, growth OD, locus YAL021C, strain ccr4
Among all 5,500 compounds or so, about 2,000 (36%) were called active. Another 18% or so got no clear call; they are omitted. Cut-off read from the data, not from the text of the source: active = normalized growth mostly below about 0.91 (no sharp cut-off); inconclusive = no clear call, values can overlap the other calls; inactive = mostly above about 0.92. This is one part of the list.
Outcomes: y for active, n for inactive

molecule=Cn1cnc2c1c(=O)[nH]c(=O)n2C qualitativelabel=n
molecule=NNCc1ccccc1 qualitativelabel=n
molecule=Cn1c(=O)[nH]c2nc[nH]c2c1=O qualitativelabel=n
molecule=O=C(Nc1ccc([N+](=O)[O-])cc1Cl)c1cc(Cl)ccc1O qualitativelabel=y
molecule="CC(=CC1CCC(C)C2C1=C(C)CC2O)C(=O)O (centres undefined)" qualitativelabel=n
molecule=O=C1C=C(O)c2ccccc2C1=O qualitativelabel=y
molecule=O=C(O)[C@H]1/C(=C/CO)O[C@@H]2CC(=O)N21 qualitativelabel=n
molecule="CC(C)c1cc2c(c(O)c1O)[C@@]1(C(=O)O)CCCC(C)(C)C1CC2 (some centres undefined)" qualitativelabel=n
molecule=CNC(=O)Oc1ccccc1OC(C)C qualitativelabel=n
molecule=CNC(=O)N(C)c1nnc(C(C)(C)C)s1 qualitativelabel=n
molecule="NC(Cc1ccc(Cl)cc1)C(=O)O (centres undefined)" qualitativelabel=n
molecule="CCCC(=O)Nc1ccc(OCC(O)CNC(C)C)c(C(C)=O)c1 (centres undefined)" qualitativelabel=n
molecule="COC1=CC23CCCN2CCc2cc4c(cc2C3C1O)OCO4 (centres undefined)" qualitativelabel=n
molecule="CC(C)C1CCC(C(=O)N[C@@H](Cc2ccccc2)C(=O)O)CC1 (some centres undefined)" qualitativelabel=n

These entries and their values trace back to PubChem BioAssay AID1159580.
